target: UniProt P08908; experiment: Binding assay 5-HT1A (h), [3H]8-OH-DPAT, HEK-293 cells; parameters: expressed in transfected cells; host or cells: HEK-293 cells; details: read-out: 5-HT1A
Sequence (P08908 whole entry): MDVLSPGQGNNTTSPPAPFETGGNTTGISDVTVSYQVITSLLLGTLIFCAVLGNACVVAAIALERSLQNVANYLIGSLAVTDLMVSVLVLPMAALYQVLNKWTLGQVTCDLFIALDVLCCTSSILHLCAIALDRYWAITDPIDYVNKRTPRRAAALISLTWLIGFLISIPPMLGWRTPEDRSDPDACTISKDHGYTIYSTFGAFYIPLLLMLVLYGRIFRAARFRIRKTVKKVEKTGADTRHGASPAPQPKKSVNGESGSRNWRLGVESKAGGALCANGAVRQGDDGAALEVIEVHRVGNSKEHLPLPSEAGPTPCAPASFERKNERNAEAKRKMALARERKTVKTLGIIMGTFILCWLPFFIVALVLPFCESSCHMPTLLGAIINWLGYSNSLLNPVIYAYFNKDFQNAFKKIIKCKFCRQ
Rule: inhibition at 1 µM under 80% gives false (0), otherwise true (1).

Solved entries (count: 3):
                                smiles_code  classification
0  O=S(=O)(NCCCCN1CCN(c2noc3ccccc23)CC1)c1cccc(Cl)c1       false (0)
1  O=S(=O)(NCCCCN1CCN(c2nsc3ccccc23)CC1)c1ccc(-c2ccccc2)cc1       false (0)
2  Cc1cccc(S(=O)(=O)NCCCN2CCC(c3noc4cc(F)ccc34)CC2)c1       false (0)

## Task Is inhibition at 1 µM at least 80%? Consider `Cn1ccc2ccc(S(=O)(=O)NCCCCN3CCC(c4noc5cc(F)ccc45)CC3)cc21`
## Result false (0)

## Task `O=S(=O)(NCCCCN1CCN(c2nsc3ccccc23)CC1)c1ccc2cc(Cl)ccc2c1` , same question.
## Result true (1)

## Task Note, next up: `O=S(=O)(NCCCCN1CCN(c2noc3ccccc23)CC1)c1ccc2cn[nH]c2c1`
## Result false (0)

## Task Likewise for `O=S(=O)(NCCCN1CCN(c2nsc3ccccc23)CC1)c1ccc2c(c1)OCO2` ?
## Result true (1)

## Task Now this one: `O=S(=O)(NCCCCN1CCN(c2nsc3ccccc23)CC1)c1cccc(Br)c1`
## Result true (1)

* * *

molecular target: dopaminergic D3 receptor (Homo sapiens); test: Binding assay D3 (h), [3H]methyl-spiperone, CHO cells; parameters: expressed in transfected cells; host or cells: CHO cells; details: read-out: D3 [%]
Sequence (P35462 whole entry): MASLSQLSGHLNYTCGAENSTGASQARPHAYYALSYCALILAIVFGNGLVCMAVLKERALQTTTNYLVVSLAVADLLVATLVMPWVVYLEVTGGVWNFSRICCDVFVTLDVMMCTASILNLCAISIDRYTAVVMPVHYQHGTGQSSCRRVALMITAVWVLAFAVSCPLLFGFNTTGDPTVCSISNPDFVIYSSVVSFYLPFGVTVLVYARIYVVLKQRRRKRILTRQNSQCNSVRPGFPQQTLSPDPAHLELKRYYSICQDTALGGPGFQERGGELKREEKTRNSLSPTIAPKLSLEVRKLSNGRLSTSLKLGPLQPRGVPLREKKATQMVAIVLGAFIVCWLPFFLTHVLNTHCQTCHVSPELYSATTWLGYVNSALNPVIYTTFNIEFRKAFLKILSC
Quick reference for inhibition at 1 µM among some compounds
API: value field is a number in %; no unit string.

Answered cases to consult:
                                smiles_code       property_name  measure_unit  reported_result
0  O=S(=O)(NCCCCN1CCN(c2noc3ccccc23)CC1)c1ccc(-c2ccccc2)cc1  inhibition at 1 µM             %              101
1  O=c1[nH]c2ccc(S(=O)(=O)NCCCN3CCC(c4noc5cc(F)ccc45)CC3)cc2o1  inhibition at 1 µM             %               97
2  O=S(=O)(NCCCN1CCC(c2noc3cc(F)ccc23)CC1)c1cc2ccc(Cl)cc2s1  inhibition at 1 µM             %              103

## Task What measured inhibition at 1 µM goes with `O=C1COc2c(cccc2N2CCN(CCCCNS(=O)(=O)c3cccc(F)c3)CC2)N1` ?
## Result 102

## Task Thanks! And `O=S(=O)(NCCCCN1CCN(c2nsc3ccccc23)CC1)c1ccc(-c2ccccc2)cc1` ?
## Result 85

## Task Same again, this time with `O=S(=O)(NCCCCN1CCN(c2nsc3ccccc23)CC1)c1c[nH]c2ncccc12`
## Result 83

## Task Then this compound: `O=S(=O)(NCCCCN1CCC(c2noc3cc(F)ccc23)CC1)c1cccc(Cl)c1`
## Result 88

## Task `O=S(=O)(NCCCCN1CCN(c2nsc3ccccc23)CC1)c1ccc(F)c(F)c1` ?
## Result 90

* * *

Listing of recorded inhibition at 1 µM by entry.
molecular target: serotonine transporter (SERT) receptor (Homo sapiens); construct: expressed in transfected cells; host or cells: CHO cells; test: Binding assay SERT (h), [3H]imipramine, CHO cells; settings: read-out: SERT [%]
Sequence (P31645 whole entry): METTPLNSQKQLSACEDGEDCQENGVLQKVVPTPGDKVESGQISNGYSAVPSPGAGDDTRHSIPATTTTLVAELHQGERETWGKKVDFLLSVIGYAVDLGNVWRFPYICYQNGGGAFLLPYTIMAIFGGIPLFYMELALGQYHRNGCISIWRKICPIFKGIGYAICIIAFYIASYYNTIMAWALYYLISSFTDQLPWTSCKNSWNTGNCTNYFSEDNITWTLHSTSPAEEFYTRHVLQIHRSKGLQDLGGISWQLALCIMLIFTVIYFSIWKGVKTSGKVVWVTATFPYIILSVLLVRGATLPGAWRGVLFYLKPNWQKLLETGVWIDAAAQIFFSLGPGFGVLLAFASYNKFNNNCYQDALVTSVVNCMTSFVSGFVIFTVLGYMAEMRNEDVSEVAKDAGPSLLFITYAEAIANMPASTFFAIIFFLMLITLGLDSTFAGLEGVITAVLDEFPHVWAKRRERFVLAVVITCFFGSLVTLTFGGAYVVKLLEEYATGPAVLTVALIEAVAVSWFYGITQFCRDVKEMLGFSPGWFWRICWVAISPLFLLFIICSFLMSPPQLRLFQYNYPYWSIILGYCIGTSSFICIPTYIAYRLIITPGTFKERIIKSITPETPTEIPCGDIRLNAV
Numeric answer only, unit % assumed.

                                smiles_code                             target_system  measure_unit  reported_result
0  O=S(=O)(NCCCN1CCC(c2noc3cc(F)ccc23)CC1)c1ccc(Cl)c(Cl)c1  serotonine transporter (SERT) receptor (Homo sapiens)             %               -2
1  O=S(=O)(NCCCCN1CCN(c2cccc3c2OCCO3)CC1)c1cccc(Br)c1  serotonine transporter (SERT) receptor (Homo sapiens)             %              -28
2  O=S(=O)(NCCCCN1CCN(c2noc3ccccc23)CC1)c1ccc2cn[nH]c2c1  serotonine transporter (SERT) receptor (Homo sapiens)             %                8

Please examine the following record next.
## Task Entry under review: `Cc1[nH]c2ccc(Cl)cc2c1C1=CCN(CCCNS(=O)(=O)c2cccc(F)c2)CC1` . Reported inhibition at 1 µM?
## Result 14
